The measured values listed here are drawn from ChEMBL document CHEMBL3877294.

System: Huh-7
method.notes: Inhibition of HCV genotype-1a NS5A infected in human HuH7 cells by luciferase reporter gene assay
Assay type: cell-based
conditions.used: Hepatitis C virus subtype 1a
reported.metric: EC90 (pM)

INSERT INTO assay_data (compound, limit_operator, endpoint_result) VALUES
  ('COC(=O)N[C@H](C(=O)N1CCC[C@H]1c1ncc(-c2cc(F)c3c(c2)OC(c2cc(C4CC4)cs2)n2c-3cc3cc(-c4cnc([C@@H]5CCCN5C(=O)[C@@H](NC(=O)OC)C(C)C)[nH]4)ccc32)[nH]1)C(C)C (some centres not stated)', '<', 2),
  ('COC(=O)N[C@H](C(=O)N1CCC[C@H]1c1ncc(-c2cc(F)c3c(c2)OC(c2cnc(CC(F)(F)F)s2)n2c-3cc3cc(-c4cnc([C@@H]5CCCN5C(=O)[C@@H](NC(=O)OC)C(C)C)[nH]4)ccc32)[nH]1)C(C)C (some centres not stated)', '=', 5);

---

method.notes: Plasma clearance in rhesus monkey at 1 mg/kg, iv measured after 48 hrs by LC/MS/MS method
Format: ADME, organism-based, Macaca mulatta
reported.metric: clearance (mL/min/kg)

INSERT INTO measurements (compound, unit_name, endpoint_result) VALUES
  ('COC(=O)N[C@H](C(=O)N1CCC[C@H]1c1ncc(-c2cc(F)c3c(c2)OC(c2cc(C(C)C)no2)n2c-3cc3cc(-c4cnc([C@@H]5CCCN5C(=O)[C@@H](NC(=O)OC)C(C)C)[nH]4)ccc32)[nH]1)C(C)C (stereo partly specified)', 'mL/min/kg', 2.2);

---

Test system: Nonstructural protein 5A (Hepatitis C virus), Q5L478 [UNDEFINED MUTATION]
method.notes: Inhibition of HCV genotype-1a NS5A L31V mutant infected in human HuH7 cells by luciferase reporter gene assay
Format: cell-based
conditions.used: Hepatitis C virus subtype 1a; Huh-7
Below, each entry is listed alongside its reported EC90.
reported.metric: EC90

INSERT INTO measurements (molecule, endpoint_result) VALUES
  ('COC(=O)N[C@H](C(=O)N1CCC[C@H]1c1ncc(-c2cc(F)c3c(c2)OC(c2ccc(C4CC4)s2)n2c-3cc3cc(-c4cnc([C@@H]5C[C@H]6C[C@H]6N5C(=O)[C@@H](NC(=O)OC)C(C)C)[nH]4)ccc32)[nH]1)C(C)C (some centres undefined)', '12 pM'),
  ('COC(=O)N[C@H](C(=O)N1CCC[C@H]1c1ncc(-c2cc(F)c3c(c2)O[C@@H](c2cnc(C4CC4)s2)n2c-3cc3cc(-c4cnc([C@@H]5CCCN5C(=O)[C@@H](NC(=O)OC)C(C)C)[nH]4)ccc32)[nH]1)C(C)C', '16 pM'),
  ('COC(=O)N[C@H](C(=O)N1CCC[C@H]1c1ncc(-c2cc(F)c3c(c2)OC(c2ccc(C(C)C)s2)n2c-3cc3cc(-c4cnc([C@@H]5CCCN5C(=O)[C@@H](NC(=O)OC)C(C)C)[nH]4)ccc32)[nH]1)C(C)C (some centres undefined)', '10 pM'),
  ('COC(=O)N[C@H](C(=O)N1CCC[C@H]1c1ncc(-c2cc(F)c3c(c2)OC(c2ccc(C(F)F)s2)n2c-3cc3cc(-c4cnc([C@@H]5CCCN5C(=O)[C@@H](NC(=O)OC)C(C)C)[nH]4)ccc32)[nH]1)C(C)C (some centres undefined)', '16 pM');
